Recorded amyloid nucleation score by entry
assayMethodText: amyloid nucleation score (Sup35N fusion, yeast selection) (log enrichment); library NNK1; higher = more nucleation; inactive = no reads after selection;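 further: zero at mode of non-aggregating sequences after 7 days selection at 30°C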

{"monomerSequence": "LLRLRISEIGSRLIKVWKSW", "amyloid nucleation score": 0.155}
{"monomerSequence": "GCYQYWCRSFHVGEIPVP", "amyloid nucleation score": -0.003}
{"monomerSequence": "QANVDCNVHPVTRML", "amyloid nucleation score": 0.085}
{"monomerSequence": "ALSPRVSSLGNFT", "amyloid nucleation score": -0.691}
{"monomerSequence": "EFRMFTLKLR", "amyloid nucleation score": 1.13}
{"monomerSequence": "AISDFMGHS", "amyloid nucleation score": -0.825}
{"monomerSequence": "HSCEPVMLVLNMNR", "amyloid nucleation score": 8.16}
{"monomerSequence": "HSDSNWIVDVLHSLYDKWLV", "amyloid nucleation score": 0.913}
{"monomerSequence": "WIPSFIQMDTVVRDTVNKEF", "amyloid nucleation score": 1.09}
{"monomerSequence": "IGCKCDIFVCNCISVCYVGA", "amyloid nucleation score": 4.3}
{"monomerSequence": "CMVSIQVVFKH", "amyloid nucleation score": 4.44}
{"monomerSequence": "IMWLLLPRYDLFFRLMYTAS", "amyloid nucleation score": 0.617}
{"monomerSequence": "KWEYCCLFMLAHVEDHLKGF", "amyloid nucleation score": 0.59}
{"monomerSequence": "VSFTSIHMVIEDLRIKLNPA", "amyloid nucleation score": -0.426}
{"monomerSequence": "YMGYCYNTTKVCKLRQIYAG", "amyloid nucleation score": 1.71}
{"monomerSequence": "LFLHPMYMMKAASASGITVV", "amyloid nucleation score": -0.1}

====

assayMethodText: amyloid nucleation score (Sup35N fusion, yeast selection) (log enrichment); library NNK2; higher = more nucleation; inactive = no reads after selection
Reported amyloid nucleation score values are given for each entry in this list.

{"substance": "LVHCLSPRIVATGVPHGMMV", "amyloid nucleation score": 1.04}
{"substance": "CPVFGSIGGLISNSWYVTLM", "amyloid nucleation score": 5.33}
{"substance": "WHMSWLK", "amyloid nucleation score": 0.114}
{"substance": "YYLFGKF", "amyloid nucleation score": -0.509}
{"substance": "YCHLVV", "amyloid nucleation score": 2.04}
{"substance": "AIITLYSNHKLYLWALLLDA", "amyloid nucleation score": -0.47}
{"substance": "LRCFRACQTRRAFEVLLLEF", "amyloid nucleation score": -0.152}
{"substance": "KNYVYWDLIHRFCLSTMR", "amyloid nucleation score": 1.62}
{"substance": "AGMGRSVWSKRFRDISRVSS", "amyloid nucleation score": 0.511}
{"substance": "CNRVHYFFCFSCLWMFVFID", "amyloid nucleation score": -2.07}
{"substance": "YRYCSCMNLAWERFGNPEGQ", "amyloid nucleation score": -0.399}
{"substance": "VLGLKKSADYKS", "amyloid nucleation score": -0.556}
{"substance": "SVCVWAYACRDRTPLLGRFC", "amyloid nucleation score": 0.508}
{"substance": "RTAINESCQDEMG", "amyloid nucleation score": 5.44}
{"substance": "TKQPSFTCPGLSSRILRRLK", "amyloid nucleation score": 3.04}
{"substance": "CFLCMQSLS", "amyloid nucleation score": 1.34}
{"substance": "EAHGSWL", "amyloid nucleation score": 0.764}
